TEST METHOD NOTES: Plasma concentration in Swiss albino mouse at 30 mg/kg, po after 1 hr
Type: ADME, organism-based
Design: dose 30 mg/kg, route oral
EXPERIMENTAL ENDPOINT: concentration at 1 h (µM)
Please state the figure in µM; there is no need to write the unit.

>  <ITEM SMILES>
O=C(O)C1CCN(c2ncc(-c3ccc4c(c3)OCCCO4)s2)CC1

>  <concentration at 1 h [µM]>
21

$$$$

Reported concentration at 1 h, compound `CC(C)Oc1cccc(-c2cnc(N3CCC(C(N)=O)CC3)s2)c1` : ____
1.27

----------
System: Caco-2
TEST METHOD NOTES: Apparent permeability from basolateral side to apical side of human Caco2 cells at 10 uM
Assay type: ADME, cell-based
STATED CONDITIONS: caco-2, 10 µM
Catalogue of Papp readings, one per entry.
Please state the figure in ×10⁻⁶ cm/s; there is no need to write the unit.

The cases that follow already have their Papp on record.
>  <ITEM SMILES>
NC(=O)C1CCN(c2nc(-c3ccc(Br)cc3)cs2)CC1

>  <MEASUREMENT TARGET>
Caco-2

>  <VALUE>
12.1

$$$$
>  <ITEM SMILES>
O=C(O)C1CCN(c2ncc(-c3ccc4c(c3)OCCCO4)s2)CC1

>  <MEASUREMENT TARGET>
Caco-2

>  <VALUE>
44.1

$$$$
>  <ITEM SMILES>
CC(C)Oc1cccc(-c2ccnc(N3CCC(C(N)=O)CC3)n2)c1

>  <MEASUREMENT TARGET>
Caco-2

>  <VALUE>
17.3

$$$$
>  <ITEM SMILES>
NC(=O)C1CCN(c2nnc(-c3ccc4c(c3)OCCCO4)s2)CC1

>  <MEASUREMENT TARGET>
Caco-2

>  <VALUE>
51.2

$$$$
>  <ITEM SMILES>
CSc1ccc(-c2cnc(N3CCC(C(N)=O)CC3)s2)cc1

>  <MEASUREMENT TARGET>
Caco-2

>  <VALUE>
0.2

$$$$

Fill in the recorded Papp for this compound, with Caco-2 as test system: `CC(C)Oc1cccc(-c2cnc(N3CCC(C(N)=O)CC3)s2)c1`
0.3

Fill in the recorded Papp for this compound, with Caco-2 as test system: `NC(=O)C1CCN(c2ncc(-c3ccc4c(c3)OCCCO4)s2)CC1`
9.9

Fill in the recorded Papp for this compound, with Caco-2 as test system: `O=C(O)C1CCN(c2nc(-c3ccc(Br)cc3)cs2)CC1`
12

----------
MEASUREMENT TARGET: Survival motor neuron protein (Homo sapiens) (UniProt Q16637)
Sequence (Q16637 whole entry): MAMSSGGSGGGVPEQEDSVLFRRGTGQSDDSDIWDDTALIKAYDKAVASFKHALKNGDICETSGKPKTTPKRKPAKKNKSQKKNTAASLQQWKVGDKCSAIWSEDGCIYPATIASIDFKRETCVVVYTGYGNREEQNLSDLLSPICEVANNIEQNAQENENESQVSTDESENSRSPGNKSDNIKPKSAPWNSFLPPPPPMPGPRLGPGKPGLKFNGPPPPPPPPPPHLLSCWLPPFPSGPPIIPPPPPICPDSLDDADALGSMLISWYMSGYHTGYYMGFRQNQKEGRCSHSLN
TEST METHOD NOTES: Activation of SMN expressed in HEK293 cells assessed as concentration required to reach 50% of maximum luciferase signal by SMN2-promotor driven luciferase reporter gene assay
Assay type: cell-based
Active and inactive are the calls of the source. The rule behind the calls is not given here.
EXPERIMENTAL ENDPOINT: Activity

The cases that follow already have their Activity on record.
>  <ITEM SMILES>
Cc1ccc(-c2nnc(N3CCC(C(N)=O)CC3)s2)cc1

>  <Activity>
0.244 µM

$$$$
>  <ITEM SMILES>
NC(=O)C1CCN(c2ncc(-c3ccc(Cl)cc3)s2)CC1

>  <Activity>
0.154 µM

$$$$
>  <ITEM SMILES>
CC(=O)C1CCN(c2ncc(-c3cccc(N(C)C)c3)s2)CC1

>  <Activity>
3.07 µM

$$$$
>  <ITEM SMILES>
O=C(NCc1ccccc1)C1CCN(c2nc(-c3ccc(Br)cc3)cs2)CC1

>  <Activity>
inactive

$$$$
>  <ITEM SMILES>
NC(=O)C1CCN(c2nccc(Cl)n2)CC1

>  <Activity>
inactive

$$$$
>  <ITEM SMILES>
N#Cc1ccc(-c2csc(N3CCC(C(N)=O)CC3)n2)cc1

>  <Activity>
9.72 µM

$$$$
>  <ITEM SMILES>
CN(C)c1cccc(-c2cc(N3CCC(C(N)=O)CC3)ncn2)c1

>  <Activity>
3.87 µM

$$$$
>  <ITEM SMILES>
NC(=O)C1CCN(c2nccc(-c3ccc4c(c3)OCCO4)n2)CC1

>  <Activity>
1.22 µM

$$$$
>  <ITEM SMILES>
NC(=O)C1CCN(c2nc(-c3ccc(F)cc3)cs2)CC1

>  <Activity>
3.87 µM

$$$$
>  <ITEM SMILES>
NC(=O)C1CCN(c2nnc(-c3ccc4c(c3)OCCCO4)s2)CC1

>  <Activity>
0.122 µM

$$$$

Reported Activity, compound `CS(=O)(=O)N1CCN(c2nc(-c3ccc(Br)cc3)cs2)CC1` : ____
inactive

Reported Activity, compound `COc1cccc(-c2csc(N3CCC(C(N)=O)CC3)n2)c1` : ____
1.94 µM

Reported Activity, compound `CCOC(=O)C1CCN(c2ncc(-c3ccc4c(c3)OCCCO4)s2)CC1` : ____
0.031 µM

Reported Activity, compound `Cc1cccc(-c2csc(N3CCC(C(N)=O)CC3)n2)c1` : ____
30.7 µM

Reported Activity, compound `NC(=O)C1CCN(c2nc(-c3cccc4ccccc34)cs2)CC1` : ____
inactive

Reported Activity, compound `NC(=O)C1CCN(c2nc(-c3cccs3)cs2)CC1` : ____
7.72 µM
